Target: BRD4-BD1 42-168 (Homo sapiens, UniProt O60885)
Experiment: SPR
No end group written: not given here.

BINDER	Kd [nM]
K(Ac)LLK(Ac)HLYH [2AcK]	1000
